Catalogue of fold change of Histamine concentration readings, one per entry.
system: Klebsiella aerogenes DSM 30053; assay: fold change of Histamine concentration vs plate DMSO controls (fold change (ratio)); higher = more amine produced, active = hit call of the paper (significant change in both replicates, either direction); settings: incubation time: 27 h, anaerobic, 37 °C
Counter-ions that a name gives are not always drawn.
// return just the number, without any unit appended

Examples from the recorded data:
1. COc1ccccc1OCC(O)CN1CCN(CC(=O)Nc2c(C)cccc2C)CC1 (centres undefined) [Ranolazine] (20 µM) = 0.957
2. C=CC1=C(C(=O)O)N2C(=O)[C@@H](NC(=O)/C(=N\OCC(=O)O)c3csc(N)n3)[C@H]2SC1 [Cefixime] (20 µM) = 0.931
3. O=C(O)c1ccccc1C(=O)Nc1ccc(S(=O)(=O)Nc2nccs2)cc1 [Phthalylsulfathiazole] (20 µM) = 1
4. NC(=O)C(c1ccccc1)(c1ccccc1)[C@@H]1CCN(CCc2ccc3c(c2)CCO3)C1 [Darifenacin hydrobromide] (20 µM) = 0.873
5. CC1(C)[C@@H](O[C@H]2O[C@H](C(=O)O)[C@@H](O)[C@H](O)[C@H]2O[C@@H]2O[C@H](C(=O)O)[C@@H](O)[C@H](O)[C@H]2O)CC[C@]2(C)[C@H]3C(=O)C=C4[C@@H]5C[C@@](C)(C(=O)O)CC[C@]5(C)CC[C@@]4(C)[C@]3(C)CC[C@@H]12 [Glycyrrhizic acid] (50 µM) = 0.865
6. Cc1nccn1CC1CCc2c(c3ccccc3n2C)C1=O (centres undefined) [Ondansetron hydrochloride] (20 µM) = 1.01

Query string: Looking for the measured fold change of Histamine concentration of C[C@]12CCC3=C4CCC(=O)C=C4CC[C@H]3[C@@H]1CC[C@@]2(O)CC#N [Dienogest] (20 µM) , can you help?
Result string: 0.945

Query string: Another: COC(=O)C1=C(C)NC(C)=C(C(=O)OCCN2CCN(C(c3ccccc3)c3ccccc3)CC2)C1c1cccc([N+](=O)[O-])c1 (centres undefined) [Manidipine Dihydrochloride] (20 µM)
Result string: 1

Query string: Nc1ccc(S(=O)(=O)Nc2ncccn2)cc1 [Sulfadiazine] (20 µM) , same question.
Result string: 0.966

====

# fold change of Cadaverine concentration annotations
tested on: Klebsiella aerogenes DSM 30053; test: fold change of Cadaverine concentration vs plate DMSO controls (fold change (ratio)); higher = more amine produced, active = hit call of the paper (significant change in both replicates, either direction); settings: incubation time: 27 h, anaerobic, 37 °C
Structures can show the parent of a compound that is named as a salt.
Answer field: number only, no words.

1. Cn1cnc2c1c(=O)[nH]c(=O)n2C [Theobromine] (20 µM) = 1
2. OC[C@@H](O)[C@H](O)[C@@H](O)CO [Xylitol] (50 µM) = 1.02
3. O=C(NCCCN1CCOCC1)c1ccc(Cl)cc1 [Eprobemide] (20 µM) = 1.05
4. Cc1cc(C)nc(NS(=O)(=O)c2ccc(N)cc2)n1 [Sulfamethazine sodium salt] (20 µM) = 0.995

Query string: So what's the measured fold change of Cadaverine concentration for this one? N[C@@H]1CONC1=O [D-cycloserine] (20 µM)
Result string: 1.05

====

tested on: Ruminococcus gnavus DSM 108212; test: growth (OD595) fold change vs plate DMSO controls (fold change (ratio)); higher = more growth; conditions: incubation time: 27 h, anaerobic, 37 °C
reportedProperty: growth
Please reply with the value in numeric form only.

A selection of reference data follows.
1) CC1(C)O[C@@H]2[C@@H](CO[C@@]3(COS(N)(=O)=O)OC(C)(C)O[C@@H]23)O1 [Topiramate] (20 µM) = 1.06
2) CC1=NN(c2ccccc2)C(=O)C1 [Edaravone] (20 µM) = 0.963
3) CC1(C)S[C@@H]2[C@H](NC(=O)Cc3ccccc3)C(=O)N2[C@H]1C(=O)O [Benzylpenicillin sodium] (20 µM) = 0
4) COc1ccc2cc(CCC(C)=O)ccc2c1 [Nabumetone] (20 µM) = 0.995
5) CCN(CC)C(=S)SSC(=S)N(CC)CC [Disulfiram] (20 µM) = 1.38

Query string: Look up growth for this molecule: C[C@H]1[C@@H](O)O[C@@H]2O[C@@]3(C)CC[C@H]4[C@H](C)CC[C@@H]1[C@@]24OO3 [Artenimol] (20 µM)
Result string: 1.04

Query string: What would you report for COc1ccc(-c2cc(=S)ss2)cc1 [Anethole-trithione] (20 µM) ?
Result string: 1.04

Query string: Again, but for O=C1CCc2cc(OCCCCc3nnnn3C3CCCCC3)ccc2N1 [Cilostazol] (20 µM)
Result string: 0.879
